Ref: patent US5041535A

Test system: human K-562 erythroleukaemical cell-line
assayName: Inhibition of the proliferation of tumor cells (K-562)
Assay type: cell-based
testSettings: peptide 1/ug/ml; 72nd hour after treatment; percentage of the control
Peptide text beside a SMILES is read from it.
measure: Inhibition of the proliferation of K-562 cells, inhibition (c %)
Give the number; % is assumed, so skip it.

CC(C)C[C@H](N)C(=O)N[C@H](C(=O)N[C@@H](C)C(=O)O)C(C)C [Peptide 7, Leu-VaI-AIa-OH] (H-Leu-Val-Ala-OH); 38

Please report the measured Inhibition of the proliferation of K-562 cells, inhibition (c %) for N=C(N)NCCC[C@H](N)C(=O)N[C@@H](CCCCN)C(=O)N[C@@H](CCC(=O)O)C(N)=O [Peptide 3, Arg-Lys-Glu-NH2] (H-Arg-Lys-Glu-NH2)
40

Read the entry CC(C)C[C@H](NC(=O)[C@@H](N)CCC(=O)O)C(=O)N[C@H](C(=O)N[C@@H](C)C(=O)O)C(C)C [Peptide 13, GIu-Leu-VaI-AIa-OH] (H-ELVA-OH) and write its reported Inhibition of the proliferation of K-562 cells, inhibition (c %).
55

Fill in Inhibition of the proliferation of K-562 cells, inhibition (c %) for record NCCCC[C@H](NC(=O)[C@H](CCCCN)NC(=O)[C@H](CCC(=O)O)NC(=O)[C@@H](N)CCCCN)C(=O)O [Peptide 10, Lys-GIu-Lys-Lys-OH] (H-KEKK-OH)
28

Answer with reported Inhibition of the proliferation of K-562 cells, inhibition (c %) of CC(C)C[C@H](N)C(=O)N1CCC[C@H]1C(=O)N[C@@H](C)C(=O)NCC(=O)O [Peptide 14, Leu-Pro AIa-Gly-OH] (H-LPAG-OH)
45

---

Test system: lymphocytes inhibited by Azathioprine
assayName: E-rosetta test inhibited by Azathioprine
Format: cell-based
testSettings: peptide 10^-5 mole/l
Square brackets hold non-standard residues; d marks the D form. Peptide text beside a SMILES is read from it. pGlu = O=C1CC[C@@H](C(=O)O)N1
measure: Relief of inhibition (R %) of E-rosetta forming activity
Number first, unit second.

See these solved cases before continuing.
N=C(N)NCCC[C@H](N)C(=O)N[C@@H](CCCCN)C(=O)N[C@@H](CCC(=O)O)C(N)=O [Peptide 3, Arg-Lys-Glu-NH2] (H-Arg-Lys-Glu-NH2); 22.6%
N=C(N)NCCC[C@H](N)C(=O)N[C@@H](CCCCN)C(=O)N[C@@H](CCC(=O)O)C(=O)O [Peptide 5, Arg-Lys-GIu-OH] (H-Arg-Lys-Glu-OH); 24.6%
CC(C)[C@H](NC(=O)[C@H](CC(=O)O)NC(=O)[C@H](CCCCN)NC(=O)[C@@H](N)CCCN=C(N)N)C(=O)N[C@@H](Cc1ccc(O)cc1)C(=O)O [A, Arg--Lys--Asp--Val--Tyr, reference compound] (H-RKDVY-OH); 29.3%
NCCCC[C@H](NC(=O)[C@H](CCC(=O)O)NC(=O)[C@@H]1CCC(=O)N1)C(N)=O [Peptide 2, Glp-Glu-Lys-NH2] ([pGlu]-Glu-Lys-NH2); 20.2%
CC(C)[C@H](NC(=O)[C@H](CC(=O)O)NC(=O)[C@H](CCCCN)NC(=O)[C@@H](N)CCCNC(=N)N)C(=O)O [B, Arg--Lys--Asp--Val, reference compound] (H-RKDV-OH); 35.4%

Please look at this molecule and report its Relief of inhibition (R %) of E-rosetta forming activity: N=C(N)NCCC[C@H](N)C(=O)N[C@@H](CCCCN)C(=O)N[C@@H](CC(=O)O)C(N)=O [Peptide 4, Arg-Lys-Asp-NH2] (H-Arg-Lys-Asp-NH2)
30.0%

Return Relief of inhibition (R %) of E-rosetta forming activity for the following molecule: NCCCC[C@H](NC(=O)[C@H](CCCCN)NC(=O)[C@H](CCC(=O)O)NC(=O)[C@@H](N)CCCCN)C(=O)O [Peptide 10, Lys-GIu-Lys-Lys-OH] (H-KEKK-OH)
16.3%
